# Tested on: Lactobacillus paracasei PCM 3039
# protocol-summary: Relative metabolic activity (AlamarBlue Cell Viability Assay)
# Format: cell-based
# run-conditions: 0.2 mg mL^−1 BP, relative to control group set at 100%
# Method: Lactobacillus paracasei PCM 3039 used in the experiments was purchased from the Polish Collection of Microorganisms (Wroclaw, Poland). […] The effect of BPs on the properties of bacterial cells was also evaluated. […] Relative metabolic activity of cells treated with the compounds in question measured with the colorimetric test AlamarBlue® Cell Viability Assay.
attribute-measured: AlamarBlue Reduction (relative metabolic activity) (%)
The reply should contain only the number, in %.

State the recorded AlamarBlue Reduction (relative metabolic activity) for this entry: O=P(O)(O)C(Nc1cccc(Cl)n1)P(=O)(O)O
35.9

State the recorded AlamarBlue Reduction (relative metabolic activity) for this entry: O=P(O)(O)C(Nc1cccc(O)n1)P(=O)(O)O
60.4

* * *

# Test system: Lactobacillus paracasei PCM 3039
# protocol-summary: Bacterial cell membrane permeability (Crystal Violet uptake)
# Type: cell-based
# run-conditions: 0.2 mg mL^−1 BP, 24 h; Ctrl 33.4 ± 8.0%
Provide the reported Crystal Violet uptake (cell membrane permeability) of each item.
Provide only the numeric value, understood in %.

Quick check: Crystal Violet uptake (cell membrane permeability) on Lactobacillus paracasei PCM 3039, item O=P(O)(O)C(Nc1cccc(O)n1)P(=O)(O)O ?
30.9

Item: O=P(O)(O)C(Nc1cccc(Cl)n1)P(=O)(O)O Test system: Lactobacillus paracasei PCM 3039 Read-out: Crystal Violet uptake (cell membrane permeability) Value: ?
61.9

Query the reported Crystal Violet uptake (cell membrane permeability) for Lactobacillus paracasei PCM 3039; item: O=P(O)(O)C(Nc1cccnc1Cl)P(=O)(O)O
60.6

Form: Entry = O=P(O)(O)C(Nc1ccc(Br)cn1)P(=O)(O)O | System = Lactobacillus paracasei PCM 3039 | Crystal Violet uptake (cell membrane permeability) = ____
30.6

Lab note: need Crystal Violet uptake (cell membrane permeability) with Lactobacillus paracasei PCM 3039 for entry Cc1ccc(NC(P(=O)(O)O)P(=O)(O)O)nc1 , please look it up.
62.7

* * *

# Test system: Lactobacillus paracasei PCM 3039
# protocol-summary: Relative metabolic activity (AlamarBlue Cell Viability Assay)
# Assay type: cell-based
# run-conditions: 0.2 mg mL^−1 BP, relative to control group set at 100%
attribute-measured: AlamarBlue Reduction (relative metabolic activity)

Which value of AlamarBlue Reduction (relative metabolic activity) has been reported for Cc1ccc(NC(P(=O)(O)O)P(=O)(O)O)nc1 in the records?
approximately 154.0%

Requested read-out: AlamarBlue Reduction (relative metabolic activity). Entry: O=P(O)(O)C(Nc1ccccn1)P(=O)(O)O
approximately 154.0%

I have this molecule here, Cc1cccnc1NC(P(=O)(O)O)P(=O)(O)O , and I need its recorded AlamarBlue Reduction (relative metabolic activity).
approximately 154.0%
